All figures here come from PubChem BioAssay (NCI).

Assign growth to each entry below.
Test system: SN12C renal
protocol: NCI-60 one-dose screen, 48 h (100 = growth as untreated, 0 = no growth, -100 = all killed)
conditionInfo: 10 µM unless noted
The panel holds about 83,000 compounds, 20% with a hit somewhere; the sample as a whole holds those more often.
One number for each entry, in %.

Solved entries (count: 2):
compound	targetEntity	obsValue
O=C(c1ccccc1)c1cccc(C(Br)Br)c1	SN12C renal	89.7
c1ccc(-c2ccc(-c3ccccc3)[nH]2)cc1	SN12C renal	95.5

Provide each entry's growth from the list below.
1. CC(=O)Oc1c(Cl)c(Cl)c(Cl)c(Cl)c1Cl
2. COc1cc(CN(c2ccc(C)cc2)C2OC(=O)c3ccccc32)cc(OC)c1OC (stereo unspecified)
3. ClC1=NC(Cl)C(Cl)=N/C1=N\c1ncn[nH]1 (stereo unspecified)
4. O=C1C=CN2C(=O)CC=CC2[C@@H]1O (stereo partly specified)

(A)
1: 94.1; 2: 50.1; 3: 26.3; 4: 106

----------
Assign growth to each entry below.
System: HCT-116 colon
protocol: NCI-60 one-dose screen, 48 h (100 = growth as untreated, 0 = no growth, -100 = all killed)
conditionInfo: 10 µM unless noted
Compounds without any hit were thinned out: in the full panel of roughly 83,000, 20% have a hit.
Answers are plain numbers, in %.

Solved entries (count: 4):
compound	unitLabel	growth
O=c1oc2ccccc2cc1-c1cc(-c2ccc(-c3cc(-c4cc5ccccc5oc4=O)nc(-c4cc5ccccc5oc4=O)c3)cc2)cc(-c2cc3ccccc3oc2=O)n1	%	97
CCOC(=O)C1OC2(CCCC2)OC1C(=O)OCC (configuration not stated)	%	98
N=C(N)c1ccc(-c2ccc(-c3cccs3)s2)cc1F	%	-47.2
Oc1ccc(-c2nnc3c4[nH]ccc4ncn23)cc1	%	88.8

Provide each entry's growth from the list below.
1. O=C1/C=C/[C@@H](O)[C@@H]2C[C@@H](O)C[C@H]2/C=C/CCC[C@H]([C@@H](O)CO)O1
2. NC(N)=N/N=C/c1ccc(Cl)cc1
3. CN(C)c1nc(-c2cccs2)n2nc(-c3ccco3)cc2n1
4. CC(C)(C)c1ccc(C(=O)Nc2sc3cc(O)ccc3c2C(N)=O)cc1
5. c1ccc(-c2nnn(-c3ccccc3)n2)cc1

(A)
1: 93.8; 2: 50.8; 3: 91.4; 4: 74; 5: 97.3

Provide each entry's growth from the list below.
1. CC1=CCC2C1CC=C(C)C(CC[C@H]1[C@@](C)(O)CCC3OC(C)(C)[C@H](OC(=O)c4ccccc4)CC[C@@]31C)C2(C)C (some centres not stated)
2. Nc1c(C(=O)C[C@@H](N)CO)ccc2c1C(=O)CCO2
3. COc1ccc(CC2c3cc(OC)c(OC)cc3CC[N+]2(C)CCC(=O)OCCCCCOC(=O)CC[N+]2(C)CCc3cc(OC)c(OC)cc3C2Cc2ccc(OC)c(OC)c2)cc1OC (configuration not stated)
4. S=C(Cc1ccccc1)N1CCN(c2ccccc2Cl)CC1
5. CCCCCCCC/C=C\CCCCCCCC(=O)OCCCCCC

(A)
1: 51.5; 2: 37.9; 3: 88.5; 4: 88.2; 5: 100

Provide each entry's growth from the list below.
1. c1cn2cc(-c3ccc4ncn(C5CCCCC5)c4c3)nc(-c3ccc4c(c3)ncn4C3CCCCC3)c2n1
2. Cc1ccncc1NC=O
3. CCN1C(=O)N(CC)C2C1NN=c1s/c(=C\c3ccc(Br)cc3)c(=O)n12 (configuration not stated)
4. Cc1c(C(=O)CCl)c(=O)n(-c2ccccc2)n1C
5. CC(=O)N1N=C(C2C(=O)N(C)C(=O)N(C)C2=O)CC1c1ccccc1C(=O)O (configuration not stated)
6. CCCCCCCC/C=C/CCCCCCCC1=NC(C)(C)CN1c1ccccc1
7. CC(=O)NC1C(O[C@H]2C[C@H]3[C@@H]4CC=C5C[C@@H](O)CC[C@]5(C)[C@H]4CC[C@]3(C)[C@H]2[C@H](C)C(=O)CCC(C)C)OCC(O)C1O (some centres not stated)

(A)
1. -61.4
2. 108
3. 5.14
4. 32
5. 91.3
6. 62.8
7. 31.8

Provide each entry's growth from the list below.
1. COc1ccc([C@H]2c3[nH]c4ccccc4c3C[C@H]3C(=O)N(CCCCCCC(=O)NO)CC(=O)N23)cc1
2. CCCCSc1ncnc2c1ncn2C1CCCCO1 (configuration not stated)
3. COc1cc(C2CC(c3ccc(C)cc3)=NN2C=O)ccc1Oc1ccnc2cc(Cl)ccc12 (configuration not stated)
4. CC(CN1CCN(CC(C)Nc2ccnc3cc(Cl)ccc23)CC1)Nc1ccnc2cc(Cl)ccc12 (configuration not stated)
5. O=C(NNC(=O)c1cccc(Cl)c1)c1ccccc1

(A)
1. 10.4
2. 100
3. 46.5
4. -83.2
5. 107

Provide each entry's growth from the list below.
1. O=[N+]([O-])c1ccc(SSc2ccc([N+](=O)[O-])cc2Cl)c(Cl)c1
2. O=C(CCl)Nc1cc(O)c2c(c1)C(=O)c1cccc(O)c1C2=O
3. CC(C)(C)[Si](C)(C)OC1[C@@H](O[Si](C)(C)C(C)(C)C)[C@@H](CNC(=O)NC(=O)NC(=O)CI)O[C@H]1n1cnc2c(NC(=O)Nc3ccccc3)ncnc21 (some centres not stated)

(A)
1: 91.1; 2: -33.9; 3: 38.5

Provide each entry's growth from the list below.
1. O=C(CC(=O)c1cccc(Cl)c1)c1cccc(Cl)c1
2. CC1OC(n2c3ccccc3c3c4c(c5c6ccccc6[nH]c5c32)C(=O)N(CCN[C@H]2CCC[C@@H]2N)C4=O)CC(O)C1O (some centres not stated)
3. COc1ccc(-c2cnnn2-c2nonc2-n2cccc2)cc1
4. Cc1c2c(cc3c1[nH]c1ccccc13)C=NCC2
5. S=C(S)Oc1cccc2cccnc12
6. CC(C)c1cccc(C#N)c1
7. CC(=O)Oc1ccccc1C(=O)Nc1ncc([N+](=O)[O-])s1

(A)
1. 19.8
2. 24.6
3. 8.3
4. 71.1
5. 95.9
6. 101
7. 3.62

Provide each entry's growth from the list below.
1. Nc1nc(N)c2cc(NCc3ccc(Cl)c(Cl)c3)ccc2n1
2. NS(=O)(=O)c1ccc(CCn2c(SCC(=O)N/N=C/c3cccnc3)nc3ccccc3c2=O)cc1
3. O=C(Nc1ccc(Cl)cc1)c1cc(-c2ccc(Cl)cc2)c2sc(=O)[nH]c2n1
4. CC(=O)Oc1c(Cl)c(Cl)c(Cl)c(Cl)c1Cl
5. Cc1ccc(NC(=O)c2sc3nc4c(cc3c2N)C(=O)CCC4)cc1Cl
6. CCOC(=O)Nc1ccc2nc(N3CCCCCC3)sc2c1

(A)
1. -88.2
2. 77.3
3. 0.269
4. 99.4
5. 105
6. 27.9

----------
Assign growth to each entry below.
System: OVCAR-4 ovarian
protocol: NCI-60 one-dose screen, 48 h (100 = growth as untreated, 0 = no growth, -100 = all killed)
conditionInfo: 10 µM unless noted
About 83,000 compounds went through this panel and 20% of them were active in at least one assay; those are over-represented in the sample as a whole.
Answers are plain numbers, in %.

Solved entries (count: 5):
compound	obsValue
COc1ccc2c(c1)sc1nc(-c3ccccc3)c(-c3cccc4ccccc34)n12	65
CCN1C(=O)N(CC)C2C1NN=c1s/c(=C\c3ccc(Br)cc3)c(=O)n12 (stereo not given)	65.7
CNCCCn1c2c(c3ccc(Cl)cc3c1=O)C(=O)c1cc(OC)cnc1-2	58.8
CCNC(=O)c1ccc2c(c1)nc(-c1ccc(Cl)cc1)n2-c1cc(C(C)(C)C)[nH]n1	70.9
CC(=O)O[C@H]1CC[C@]2(C)[C@H]3CC=C4[C@@H]5CC(C)(C)CC[C@]5(C(=O)OCC(COC(=O)C(Cl)Cl)(COC(=O)C(Cl)Cl)NC(=O)C(Cl)Cl)CC[C@@]4(C)[C@]3(C)CC[C@H]2C1(C)C	67.6

Provide each entry's growth from the list below.
1. O=C(O/C(=C/c1ccccc1)C(F)(F)F)c1ccccc1
2. COc1ccc(/C=C/C(=O)CCC(=O)O)cc1OC
3. Nc1c(C(=O)C[C@@H](N)CO)ccc2c1C(=O)CCO2
4. CCCC(CCC)(C(N)=O)C(=O)O
5. Cc1ccccc1C1CC(=O)c2ccccc2C1C (stereo not given)

(A)
[103, 99, 86.4, 101, 101]

----------
System: KM12 colon
protocol: NCI-60 one-dose screen, 48 h (100 = growth as untreated, 0 = no growth, -100 = all killed)
conditionInfo: 10 µM unless noted
Compounds without any hit were thinned out: in the full panel of roughly 83,000, 20% have a hit.
Everything with growth lower than 20% is no (0); everything else, including exactly 20%, is yes (1).

molecule	targetEntity	classLabel
S=C(Cc1ccccc1)N1CCN(c2ccccc2Cl)CC1	KM12 colon	yes (1)

(Q) Has `COc1ccc2nc3cc(Cl)ccc3c(NC(=O)CSc3ccc(Cl)cc3)c2c1` a recorded growth greater than or equal to 20%?
(A) no (0)

(Q) Do the same for COc1cc(CN(c2ccc(C)cc2)C2OC(=O)c3ccccc32)cc(OC)c1OC (stereo not given) please
(A) no (0)

(Q) Do the same for `NC(N)=N/N=C/c1cccc(Cl)c1Cl` please
(A) no (0)

(Q) Do the same for COc1cc(C2CC(c3ccc(C)cc3)=NN2C=O)ccc1Oc1ccnc2cc(Cl)ccc12 (stereo not given) please
(A) yes (1)

(Q) Do the same for `O/N=C1\c2ccccc2-c2ccc(Br)cc21` please
(A) yes (1)
